// MDM2 (Homo sapiens, UniProt Q00987) IC50 records
// return numeric value only (unit: µM, not printed)

Record excerpt, results attached:
# get_value(readout= IC50, system= MDM2 (Homo sapiens, UniProt Q00987)) for O=C(O)C[C@H]1C[C@H]2[C@@H](N1)[C@H](c1cccc(Cl)c1)[C@]1(C(=O)Nc3cc(Cl)ccc31)N2CC1CC1
0.28

Continue with CCOc1cccc(CN2[C@H]3CCN(CC4CC4C(N)=O)[C@H]3[C@H](c3cccc(Cl)c3F)[C@]23C(=O)Nc2cc(Cl)ccc23)c1 (stereo partly drawn)
0.021

Kindly consider the entry below.
# get_value(readout= IC50, system= MDM2 (Homo sapiens, UniProt Q00987)) for NC(=O)c1ccc([C@H]2C[C@H]3[C@@H](N2)[C@H](c2cccc(Cl)c2F)[C@]2(C(=O)Nc4cc(Cl)ccc42)N3CC2CC2)cc1
0.016

* * *

// MDM2 (Homo sapiens, UniProt Q00987) pIC50 records
Please treat pIC50 as minus the base-10 logarithm of the molar concentration.

Record excerpt, results attached:
Look up pIC50 for this compound: CCOc1cccc(CN2[C@H]3CCN(CC4CC4C(=O)O)[C@H]3[C@H](c3cccc(Cl)c3F)[C@]23C(=O)Nc2cc(Cl)ccc23)c1 (stereo partly drawn)
8.52

Continue with CCOc1cccc(CN2[C@H]3C[C@H](c4ccc(C(=O)O)cc4)N[C@H]3[C@H](c3cccc(Cl)c3F)[C@]23C(=O)Nc2cc(Cl)ccc23)c1
8.40

Continue with CC(=O)N1CC[C@H]2C1[C@H](c1cccc(Cl)c1F)[C@]1(C(=O)Nc3cc(Cl)ccc31)N2CC1CC1 (stereo partly drawn)
6.67

New cases:
Look up pIC50 for this compound: O=C(O)c1cccc([C@H]2C[C@H]3[C@@H](N2)[C@H](c2cccc(Cl)c2)[C@]2(C(=O)Nc4cc(Cl)ccc42)N3CC2CC2)c1
7.49

Continue with CC(=O)Nc1ccc(C(=O)N2CC[C@H]3C2[C@H](c2cccc(Cl)c2F)[C@]2(C(=O)Nc4cc(Cl)ccc42)N3CC2CC2)cc1 (stereo partly drawn)
6.41

Continue with CC(=O)N1CC[C@H]2C1[C@H](c1ccnc(Cl)c1F)[C@]1(C(=O)Nc3cc(Cl)ccc31)N2CC1CC1 (stereo partly drawn)
7.47

* * *

// MDM2 (Homo sapiens, UniProt Q00987) log10 of IC50 records
In plain terms, each number is the log10 of measured IC50 in nM.

# get_value(readout= log10 of IC50, system= MDM2 (Homo sapiens, UniProt Q00987)) for CCOc1cccc(CN2[C@H]3CCN(CC4CCC(C(=O)O)CC4)[C@H]3[C@H](c3cccc(Cl)c3F)[C@]23C(=O)Nc2cc(Cl)ccc23)c1 (stereo partly drawn)
1.38

Continue with CCOc1cccc(CN2[C@H]3CCN(CC(=O)O)[C@H]3[C@H](c3cccc(Cl)c3F)[C@]23C(=O)Nc2cc(Cl)ccc23)c1
0.30

Continue with O=C(O)c1ccc([C@H]2C[C@H]3[C@@H](N2)[C@H](c2cccc(Cl)c2F)[C@]2(C(=O)Nc4cc(Cl)c(F)cc42)N3CC2CC2)cc1
0.95

Continue with CCOc1cccc(CN2[C@H]3CCN(C(C)=O)C3[C@H](c3cccc(Cl)c3F)[C@]23C(=O)Nc2cc(Cl)ccc23)c1 (stereo partly drawn)
1.45

Continue with O=C(O)C1CC1CN1CC[C@H]2[C@@H]1[C@H](c1cccc(Cl)c1F)[C@]1(C(=O)Nc3cc(Cl)ccc31)N2CC1CC1 (stereo partly drawn)
2.11

Kindly consider the entry below.
# get_value(readout= log10 of IC50, system= MDM2 (Homo sapiens, UniProt Q00987)) for CCOc1cccc(CN2[C@H]3C[C@@H](c4ccc(C(=O)O)cc4)N[C@H]3[C@H](c3cccc(Cl)c3F)[C@]23C(=O)Nc2cc(Cl)ccc23)c1
0.70
